tested on: SNB-19; experiment: NCI tumour cell line growth inhibition, 48 h
The source made the active and inactive calls. Cut-off read from the data, not from the text of the source: active = GI50 up to about 1.1 µM and inactive = higher.
Could you please pick one outcome from this set? Yes (active), No (inactive)

- molecule: "C=C1C(C)C2C(Cc3ccccc3)NC(=O)C23C(OC(C)=O)/C=C/C(C)(O)CC(C)C/C=C/C3C1O (stereo not given)"
  assaySystem: "SNB-19"
  categoryLabel: "Yes"
- molecule: "CC1(C)OC[C@H](COCOP2(=O)Oc3ccc4ccccc4c3-c3c(ccc4ccccc34)O2)O1"
  assaySystem: "SNB-19"
  categoryLabel: "No"
- molecule: "COc1ccc(-c2nc3ccc([N+](=O)[O-])cc3c(=O)[nH]2)cc1"
  assaySystem: "SNB-19"
  categoryLabel: "No"
- molecule: "N#CCCC1(CCC#N)CCCCCCCCC(CCC#N)(CCC#N)C(O)C1O (stereo not given)"
  assaySystem: "SNB-19"
  categoryLabel: "No"
- molecule: "Cc1cc2c(cc1C)[n+]([O-])c(C#N)c(Cl)[n+]2[O-]"
  assaySystem: "SNB-19"
  categoryLabel: "No"
- molecule: "CC(C)C(C)/C=C\\C(C)C1CCC2C3=CC=C4CC(O)CCC4(C)C3CCC21C (stereo not given)"
  assaySystem: "SNB-19"
  categoryLabel: "No"
- molecule: "CC(=O)OCC1OC(n2c3c(c(-c4ccco4)c(C#N)c2=S)CCCC3)C(OC(C)=O)C(OC(C)=O)C1OC(C)=O (stereo not given)"
  assaySystem: "SNB-19"
  categoryLabel: "No"
- molecule: "COc1cc2c(cc1O)CN1CCC23C=C[C@@H](O)CC13 (stereo not given in full)"
  assaySystem: "SNB-19"
  categoryLabel: "No"

Problem: // return assay outcome for CC(C)=CCC/C(C)=C/C=C/C(C)=C/C1C[C@@]2(C(O)O1)[C@H](CCCO)/C(=C(/C)C=O)CC[C@]2(C)O (stereo not given in full)
Solution: No

Problem: What did this assay record as the result for CCc1cc(O)c(Cl)c(C)c1Cl ?
Solution: No

Problem: I would be grateful if you could indicate the recorded call for Cn1c(CC(O)c2nc3ccccc3n2C)nc2ccccc21 (stereo not given) .
Solution: No

Problem: Hi team, can someone confirm the assay call for COC(=O)C(=O)C(C#N)c1c(Cl)cccc1Cl (stereo not given) ?
Solution: No

Problem: Tell me the recorded outcome of this test for Cc1cc(=O)cc2sc3cc(Cl)ccc3nc1-2 .
Solution: No

Problem: Which result was noted for this molecule in the test: OC(CC(O)(C(F)(F)Cl)C(F)(F)Cl)c1ccccc1 (stereo not given)
Solution: No

Problem: What was the test verdict on COc1ccc(-c2c(C(C)=O)c(C)n(C3OC(COC(C)=O)C(OC(C)=O)C(OC(C)=O)C3OC(C)=O)c(=S)c2C#N)cc1 (stereo not given) ?
Solution: No

Problem: Could you kindly confirm the outcome this assay logged for C=CC1(c2ccc(-c3ccccc3)cc2)OCCO1 ?
Solution: No

Problem: Check the results log: what was the call for Cc1ccc2[nH]c(=N/c3ccccc3C)/c(=N\c3ccccc3C)[nH]c2c1 ?
Solution: No

Problem: Could you kindly confirm the outcome this assay logged for CC1=C(C(=O)CC(=O)C(=O)NC2C3CC4CC(C3)CC2C4)Sc2ccccc2N1 (stereo not given) ?
Solution: No

Problem: For this molecule, state the assay outcome: COc1ccc(C(=O)CC(c2ccccc2)[C@H]2C(c3ccc(OC)cc3)=Nc3c(nc(SC)n(C)c3=O)NC2c2ccccc2)cc1 (stereo not given in full)
Solution: No

Problem: Test call, this molecule: O=C(O)C1=C(C(=O)Nc2ccc(NC(=O)C3=C(C(=O)O)C4C=CC3C4)cc2)C2C=CC1C2
Solution: No
